biological target: human 5-HT3 receptor (Homo sapiens (Human)); assay: Radioligand binding assay (SPA format), affinity for the human 5-HT3 receptor; conditions: [9-methyl-3H]BRL-43694 10 nM, human 5-HT3 receptor membranes, Cheng Prusoff; read-out: h5-HT3A Ki
Sequence (P46098 24-478): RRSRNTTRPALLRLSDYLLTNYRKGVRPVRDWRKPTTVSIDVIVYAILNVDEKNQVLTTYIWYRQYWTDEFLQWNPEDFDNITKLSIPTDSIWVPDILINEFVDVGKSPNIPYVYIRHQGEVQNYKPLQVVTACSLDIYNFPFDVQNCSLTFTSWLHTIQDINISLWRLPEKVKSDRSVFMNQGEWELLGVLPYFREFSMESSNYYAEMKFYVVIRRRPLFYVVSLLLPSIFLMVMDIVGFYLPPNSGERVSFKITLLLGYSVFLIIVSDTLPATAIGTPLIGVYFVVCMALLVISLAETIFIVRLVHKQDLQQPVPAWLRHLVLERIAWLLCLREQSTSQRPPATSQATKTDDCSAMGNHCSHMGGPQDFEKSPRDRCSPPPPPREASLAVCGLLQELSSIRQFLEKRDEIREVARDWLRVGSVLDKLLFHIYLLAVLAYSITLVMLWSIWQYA
reported.metric: Ki (nM)
Give your result in nM as a bare value.

Consider the reported Ki for these compounds:
O=C1c2cccc3[nH]nc(c23)CN1CC12CCN(CC1)CC2
2
Cc1cn2c3c(cc(Cl)cc13)C(=O)N([C@@H]1CN3CCC1CC3)CC2
0.2
O=C1c2cccc3[nH]c(=O)n(c23)CCN1[C@@H]1CN2CCC1CC2
7
O=C1c2cccc3ccn(c23)CCCN1[C@@H]1CN2CCC1CC2
205
O=C1c2cccc3c2N(CCN1[C@@H]1CN2CCC1CC2)S(=O)(=O)N3
701

Exercise: What Ki value was documented for this compound, O=C1c2cc(F)cc3cnn(c23)CCN1[C@@H]1CN2CCC1CC2 ?
Solution: 6

Exercise: Input O=C1c2cccc3cnn(c23)CCN1CC12CCN(CC1)CC2
Solution: 73

Exercise: Input O=C1c2cccc3ncn(c23)CCN1[C@@H]1CN2CCC1CC2
Solution: 32

Exercise: Input Cc1cc2c3c(cnn3CCN([C@@H]3CN4CCC3CC4)C2=O)c1
Solution: 0.8

Exercise: Input O=C1c2cccc3nc(-c4ccccc4Cl)n(c23)CCN1[C@@H]1CN2CCC1CC2
Solution: 206

Exercise: Input O=C1c2cccc3nc(-c4ccccc4)n(c23)CCN1[C@@H]1CN2CCC1CC2
Solution: 406

Exercise: Input O=C1c2cc(Cl)cc3cnn(c23)CCN1[C@@H]1CN2CCC1CC2
Solution: 0.5

Exercise: Input Cc1cn2c3c(cccc13)C(=O)N([C@@H]1CN3CCC1CC3)CC2
Solution: 5

Exercise: Input O=C1c2cccc3[nH]cc(c23)CCN1CC12CCN(CC1)CC2
Solution: 30

Exercise: Input CCc1nc2cccc3c2n1CCN([C@@H]1CN2CCC1CC2)C3=O
Solution: 130

Hey, just so you know, these numbers are from patent US9045501B2.
